Listed here: items and their measured log10(TGI).
System: HL-60(TB) leukemia
ASSAY METHOD TEXT: NCI tumour cell line growth inhibition, 48 h
PARAMETER MEASURED: log10(TGI) (log10 of the value in µM)

| COMPOUND | log10(TGI) |
| --- | --- |
| c1ccc2c(OCC3CO3)ccc(OCC3CO3)c2c1 (stereo unspecified) | 0.38 |
| Cc1c(N(C(=O)c2cc(-c3cc(Cl)ccc3C(=O)N3Cc4ccccc4C[C@H]3CN3CCOCC3)n(C)c2C)c2ccc(O)cc2)cc(C#N)n1C | 1.46 |
| Cn1c(=S)[nH]c2c(Cl)cc(Cl)cc2c1=O | 1.90 |
| O=C(Nc1cccc(-c2nc3ccccc3[nH]2)c1)c1cccc(NC(=O)c2ccco2)c1 | 1.24 |
| C=C1C(=O)O[C@H]2[C@H]1CC/C(COC(=O)N[C@@H](Cc1c[nH]c3ccccc13)C(=O)OC)=C\CC[C@@]1(C)O[C@@H]21 | 0.28 |
| N#C/C(=C\c1ccc(Cl)cc1)n1nnc2cc(F)c(F)cc21 | 0.83 |
| CC1=C([Se]CC(OC(=O)[C@@H](CSSC(C)(C)C)NC(=O)C(C)(C)C)C(=O)NCCCCCC(=O)OCc2ccccc2)C(=O)c2ccccc2C1=O (stereo partly specified) | 0.78 |
| COc1cc(/C=C/C(=O)CC(=O)/C=C/c2ccc(OC(=O)CCNC34CC5CC(CC(C5)C3)C4)c(OC)c2)ccc1OC(=O)CCNC12CC3CC(CC(C3)C1)C2 | 0.97 |

Values from PubChem BioAssay (NCI)
